TARGET UNDER TEST: T1, recombinant human PD-L1 expressed with a C-terminal myc-myc-hexahistidine tag (hPD-L1-MMH) (human)
T1 construct: Monomeric PD-L1 reagent; also called hPD-L1-MMH Monomer
T1 sequence (chain, as listed by the source limits assumed): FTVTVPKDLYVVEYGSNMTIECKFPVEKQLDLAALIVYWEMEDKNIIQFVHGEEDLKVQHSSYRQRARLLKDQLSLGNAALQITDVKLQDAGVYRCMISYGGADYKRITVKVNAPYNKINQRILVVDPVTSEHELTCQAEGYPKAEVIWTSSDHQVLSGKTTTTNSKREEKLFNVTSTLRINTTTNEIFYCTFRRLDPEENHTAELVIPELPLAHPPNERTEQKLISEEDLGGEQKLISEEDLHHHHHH
METHOD: SPR, captured mAb, 25 C
Method: Binding association and dissociation rate constants (kₐ and kd, respectively), equilibrium dissociation constants and dissociation half-lives (KD and t_{1/2}, respectively) of antigen binding to purified anti-PD-L1 monoclonal antibodies were determined using a real-time surface plasmon resonance biosensor assay on a Biacore 4000 instrument. […]
PROPERTY NAME: koff (s⁻¹)
Note: unit s⁻¹ is implicit; provide only the numeric part.

# koff lookup, item H1H9329P (antibody, human IgG1, V domains shown) VH: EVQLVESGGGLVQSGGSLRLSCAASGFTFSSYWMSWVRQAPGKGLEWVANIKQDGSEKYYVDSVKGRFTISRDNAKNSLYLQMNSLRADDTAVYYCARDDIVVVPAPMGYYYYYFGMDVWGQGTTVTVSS VL: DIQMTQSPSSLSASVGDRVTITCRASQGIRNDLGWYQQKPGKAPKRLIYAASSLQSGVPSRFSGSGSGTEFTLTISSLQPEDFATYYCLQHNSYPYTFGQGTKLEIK
0.134

Looking for the measured koff of H2aM8314N (antibody, mouse IgG2, V domains shown, also called H2M8314N) VH: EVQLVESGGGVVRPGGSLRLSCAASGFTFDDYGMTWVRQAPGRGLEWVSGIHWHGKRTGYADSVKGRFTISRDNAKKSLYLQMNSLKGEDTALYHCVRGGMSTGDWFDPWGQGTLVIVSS VL: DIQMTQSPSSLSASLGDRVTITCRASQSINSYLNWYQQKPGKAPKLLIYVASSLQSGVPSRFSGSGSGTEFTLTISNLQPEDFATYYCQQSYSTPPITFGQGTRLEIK , can you help?
5.17e-05

Quick check: koff of H2aM8323N (antibody, mouse IgG2, V domains shown, also called H2M8323N) VH: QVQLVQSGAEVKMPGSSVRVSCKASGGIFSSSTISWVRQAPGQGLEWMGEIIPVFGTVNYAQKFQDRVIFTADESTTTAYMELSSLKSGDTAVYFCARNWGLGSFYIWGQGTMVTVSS VL: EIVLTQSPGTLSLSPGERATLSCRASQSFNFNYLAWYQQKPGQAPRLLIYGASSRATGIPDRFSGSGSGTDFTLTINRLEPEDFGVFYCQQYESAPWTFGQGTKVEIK ?
0.000223

What value of measured koff is listed for H2aM8310N (antibody, mouse IgG2, V domains shown, also called H2M8310N) VH: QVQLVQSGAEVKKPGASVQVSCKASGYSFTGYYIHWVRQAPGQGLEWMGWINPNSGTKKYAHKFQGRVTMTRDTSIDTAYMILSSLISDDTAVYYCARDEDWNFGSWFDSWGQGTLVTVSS VL: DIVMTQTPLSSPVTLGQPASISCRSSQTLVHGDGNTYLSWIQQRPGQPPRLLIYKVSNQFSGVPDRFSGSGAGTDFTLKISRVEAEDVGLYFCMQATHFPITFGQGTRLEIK ?
0.00031

// koff lookup, key: H1H9336P (antibody, human IgG1, V domains shown) VH: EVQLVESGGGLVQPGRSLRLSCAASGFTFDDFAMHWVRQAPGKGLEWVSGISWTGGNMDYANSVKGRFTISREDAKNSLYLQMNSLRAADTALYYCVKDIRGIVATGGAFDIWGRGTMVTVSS VL: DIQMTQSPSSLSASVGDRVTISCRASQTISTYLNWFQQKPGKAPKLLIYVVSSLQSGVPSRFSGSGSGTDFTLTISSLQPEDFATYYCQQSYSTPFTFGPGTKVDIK
0.00039
